Biological target: UniProt Q16769
Assay: Fluorometric assay of glutaminyl cyclase (QC) inhibition, H-Gln-βNA or H-Gln-AMC substrate
Assay type: biochemical
Settings: read-out: IC50
Catalogue of pIC50 readings, one per entry.
pIC50 is a log-scale quantity: -log10 of the concentration expressed in molar.

The cases that follow already have their pIC50 on record.
| Compound | Readout Kind | Reported Value |
| --- | --- | --- |
| O=C1CCCN1CCC/N=C1/NC(=O)N(c2ccc3[nH]cnc3c2)C1c1cc(F)cc(F)c1 (centres unmarked) | pIC50 | 5.89 |
| O=C(CN=C1NC(=O)N(c2ccc3nc[nH]c3c2)C1c1cc(Br)cc(Br)c1)N1CCSCC1 (centres unmarked) | pIC50 | 5.40 |
| S=C1N/C(=N\C2CCCc3ccccc32)C(c2cccc(Br)c2)N1c1ccc2[nH]cnc2c1 (centres unmarked) | pIC50 | 5.24 |

# pIC50 (compound: O=C1N/C(=N/CCCc2ccccc2)C(c2cc(Br)cc(Br)c2)N1c1ccc2[nH]cnc2c1 (centres unmarked) ) is 8.40

# pIC50 (compound: Cc1ccc(C2/C(=N/C(C)C)NC(=O)N2c2ccc3[nH]cnc3c2)c(C)c1 (centres unmarked) ) is 6.40

* * *

Target: hQC (Homo sapiens)
Assay: Fluorometric assay of glutaminyl cyclase (QC) inhibition, H-Gln-βNA or H-Gln-AMC substrate
Type: biochemical
Settings: read-out: IC50
Readout Kind: IC50
In your response, put the unit directly after the numeric value.

The cases that follow already have their IC50 on record.
| Molecule | Reported Value |
| --- | --- |
| O=C1N/C(=N/CCc2cccs2)C(c2ccc(Cl)c(F)c2)N1CCCn1ccnc1 (centres unmarked) | 5.8 µM |
| O=C1N/C(=N/C2CC2)C(c2ccc(Br)cc2)N1c1ccc2nc[nH]c2c1 (centres unmarked) | 0.4 µM |
| Cc1cccc(C2/C(=N\Cn3nnc4ccccc43)NC(=O)N2c2ccc3[nH]cnc3c2)c1 (centres unmarked) | 3.1 µM |
| CCC1/C(=N\CC(=O)N2CCc3ccccc3C2)NC(=O)N1CCCn1ccnc1 (centres unmarked) | 7.6 µM |
| O=C(C/N=C1\NC(=S)N(c2ccc3[nH]cnc3c2)C1c1ccccc1C(F)(F)F)N1CCCCC1 (centres unmarked) | 1.3 µM |

# IC50 (molecule: O=C1CCCN1CCC/N=C1/NC(=O)N(c2ccc3[nH]cnc3c2)C1c1ccc(Cl)c(F)c1 (centres unmarked) ) is 0.4 µM

# IC50 (molecule: CC1=CC(C)C(C2C(=NCC(=O)N3CCSCC3)NC(=O)N2c2ccc3[nH]cnc3c2)CC1 (centres unmarked) ) is 1.3 µM

# IC50 (molecule: CCCC1/C(=N\CCC(c2ccccc2)c2ccccc2)NC(=O)N1CCCn1ccnc1 (centres unmarked) ) is 9.4 µM

# IC50 (molecule: O=C1N/C(=N\C(Cc2ccccc2)c2ccccc2)C(C2=CCCCC2)N1c1ccc2[nH]cnc2c1 (centres unmarked) ) is 3.1 µM

# IC50 (molecule: O=c1c(C2/C(=N/Cc3ccccc3)NC(=S)N2c2ccc3[nH]cnc3c2)coc2ccccc12 (centres unmarked) ) is 3.1 µM

# IC50 (molecule: O=C1N/C(=N/CCc2c[nH]c3ccccc23)C(c2ccco2)N1CCCn1ccnc1 (centres unmarked) ) is 6.7 µM

# IC50 (molecule: O=C1N/C(=N\C2CCCCC2)C(c2c(F)ccc(Cl)c2F)N1c1ccc2[nH]cnc2c1 (centres unmarked) ) is 0.004 µM

# IC50 (molecule: O=C(C/N=C1/NC(=O)N(c2ccc3[nH]cnc3c2)C1c1ccc(Cl)cc1)N1CCC(O)C1 (centres unmarked) ) is 4 µM

# IC50 (molecule: O=C1N/C(=N\C2CCCCC2)C(c2ccccc2Cl)N1CCCn1ccnc1 (centres unmarked) ) is 7.2 µM

# IC50 (molecule: CCc1ccccc1/N=C1\NC(=O)N(c2ccc3[nH]cnc3c2)C1c1ccccc1 (centres unmarked) ) is 7.6 µM

# IC50 (molecule: S=C1N/C(=N\C2CCc3ccccc32)C(c2ccc(Br)cc2)N1c1ccc2[nH]cnc2c1 (centres unmarked) ) is 1.3 µM

* * *

Target: hQC (Homo sapiens)
Test: Fluorometric assay of glutaminyl cyclase (QC) inhibition, H-Gln-βNA or H-Gln-AMC substrate
Type: biochemical
Details: read-out: IC50
Readout Kind: log10(IC50) (log10 of the value in µM)
For clarity, the numbers are log10 values of IC50 expressed in µM.

The cases that follow already have their log10(IC50) on record.
| Compound | Reported Value |
| --- | --- |
| O=C1N/C(=N/CCc2c[nH]c3ccccc23)C(c2ccccc2Cl)N1CCCn1ccnc1 (stereo not shown) | 0.34 |
| Cc1ccc(C2/C(=N/C3CCCCCC3)NC(=S)N2c2ccc3nc[nH]c3c2)c(C)c1 (stereo not shown) | 0.69 |
| O=C(C/N=C1/NC(=O)N(CCCn2ccnc2)C1CO)N1CCc2ccccc2C1 (stereo not shown) | 0.93 |
| O=C1N/C(=N\c2ccc(Oc3ccccc3)cc2)C(C2CCC=CO2)N1CCCn1ccnc1 (stereo not shown) | 0.69 |
| S=C1N/C(=N\C(Cc2ccccc2)c2ccccc2)C(c2cccc(Br)c2)N1c1ccc2[nH]cnc2c1 (stereo not shown) | 0.97 |
| O=C1N/C(=N/CCc2cccs2)C(c2ccccc2)N1CCCn1ccnc1 (stereo not shown) | 0.88 |
| O=C1N/C(=N\C2CCCCC2)C(c2ccc(Br)cc2)N1c1ccc2nc[nH]c2c1 (stereo not shown) | -2.40 |
| O=C1N/C(=N\CCc2c[nH]c3ccccc23)C(c2cccc(F)c2F)N1CCCn1ccnc1 (stereo not shown) | 0.34 |

Please look at the following compound next.
# log10(IC50) (compound: O=C1N/C(=N\CCC(c2ccccc2)c2ccccc2)C(c2ccccc2F)N1CCCn1ccnc1 (stereo not shown) ) is 0.83

* * *

Catalogue of pIC50 readings, one per entry.
Target: hQC (Homo sapiens, UniProt Q16769)
Sequence (Q16769 29-361): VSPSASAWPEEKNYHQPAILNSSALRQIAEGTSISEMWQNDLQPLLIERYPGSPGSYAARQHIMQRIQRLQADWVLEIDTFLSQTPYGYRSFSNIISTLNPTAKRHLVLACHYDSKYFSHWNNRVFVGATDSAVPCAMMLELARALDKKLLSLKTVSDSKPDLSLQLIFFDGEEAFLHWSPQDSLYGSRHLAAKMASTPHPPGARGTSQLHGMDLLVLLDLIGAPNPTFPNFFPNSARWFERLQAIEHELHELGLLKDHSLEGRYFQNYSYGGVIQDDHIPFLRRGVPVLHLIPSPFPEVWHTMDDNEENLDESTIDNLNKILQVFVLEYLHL
Experiment: Fluorometric assay of glutaminyl cyclase (QC) inhibition, H-Gln-βNA or H-Gln-AMC substrate
Format: biochemical
Conditions: compound from preparative synthesis, purified by chromatography; fluorescent assay; read-out: IC50 hQC
pIC50 is a log-scale quantity: -log10 of the concentration expressed in molar.

| Molecule | pIC50 |
| --- | --- |
| O=C1N/C(=N\CCc2c[nH]c3ccccc23)C(c2cccc(F)c2F)N1CCCn1ccnc1 (centres unmarked) | 6.20 |
| CC(/N=C1\NC(=O)N(c2ccc3[nH]cnc3c2)C1c1ccccc1C(F)(F)F)C(C)(C)C (centres unmarked) | 5.91 |
| O=C1CCCN1CCC/N=C1/NC(=O)N(c2ccc3[nH]cnc3c2)C1c1ccc2c(c1)OCO2 (centres unmarked) | 7.56 |

# pIC50 (molecule: O=C1N/C(=N\[C@H]2CCc3ccccc32)C(c2ccc(Br)cc2)N1c1ccc2[nH]cnc2c1 (some centres unmarked) ) is 7.55

# pIC50 (molecule: O=C1N/C(=N/CCc2c[nH]c3ccccc23)C(c2ccccc2Cl)N1CCCn1ccnc1 (centres unmarked) ) is 6.32

* * *

Target: hQC (Homo sapiens)
Assay: Fluorometric assay of glutaminyl cyclase (QC) inhibition, H-Gln-βNA or H-Gln-AMC substrate
Format: biochemical
Conditions: compound from preparative synthesis, purified by chromatography; fluorescent assay; read-out: IC50 hQC
Readout Kind: pIC50
pIC50 is a log-scale quantity: -log10 of the concentration expressed in molar.

The cases that follow already have their pIC50 on record.
| Compound | Reported Value |
| --- | --- |
| O=C1N/C(=N/c2ccc3c(c2)OCCO3)C(c2ccc(Br)cc2)N1c1ccc2[nH]cnc2c1 (stereo not shown) [Compound 331] | 7.18 |
| O=C1N/C(=N\CCc2cccs2)C(c2ccccc2Cl)N1CCCn1ccnc1 (stereo not shown) [Compound 43] | 6.07 |
| O=C1N/C(=N\C2CCCC2)C(c2ccc3[nH]ccc3c2)N1c1ccc2[nH]cnc2c1 (stereo not shown) [Compound 226] | 7.46 |
| O=C1N/C(=N/CCc2c[nH]c3ccccc23)C(c2ccccc2F)N1CCCn1ccnc1 (stereo not shown) [Compound 61] | 6.34 |
| O=C1N/C(=N/Cc2ccccc2)C(c2ccc(Br)cc2)N1c1ccc2[nH]cnc2c1 (stereo not shown) [Compound 216] | 7.66 |

# pIC50 (compound: CC1=CC(C)C(C2/C(=N/C(C)C)NC(=O)N2c2ccc3[nH]cnc3c2)CC1 (stereo not shown) [Compound 254] ) is 6.00

# pIC50 (compound: O=C1N/C(=N\C2CCCC2)C(c2ccc(Cl)cc2)N1c1ccc2[nH]cnc2c1 (stereo not shown) [Compound 211] ) is 7.42

* * *

Catalogue of IC50 readings, one per entry.
Molecular target: UniProt:Q16769
Assay: Fluorometric assay of glutaminyl cyclase (QC) inhibition, H-Gln-βNA or H-Gln-AMC substrate
Type: biochemical
Settings: read-out: IC50
Experimental: All compounds were immediately tested regarding their activity as hQC inhibitors. The purity of the compounds was determined by HPLC-MS. The IC50 value against hQC was measured using the fluorescent assay. All measurements were performed with a BioAssay Reader HTS-7000Plus for microplates (Perkin Elmer) at 30° C. QC activity was evaluated fluorometrically using H-Gln-βNA. […] QC activity was determined from a standard curve of β-naphthylamine under assay conditions. […]
// units = nM; emit number, no label

The cases that follow already have their IC50 on record.
| Compound | Target Of Assay | IC50, nM |
| --- | --- | --- |
| O=C1N/C(=N/CCCN2CCOCC2)C(c2ccc3[nH]ccc3c2)N1c1ccc2[nH]cnc2c1 (centres unmarked) | UniProt:Q16769 | 4 |
| O=C1N/C(=N/CCC(c2ccccc2)c2ccccc2)C(CO)N1CCCn1ccnc1 (centres unmarked) | UniProt:Q16769 | 9400 |
| Cc1ccc2occ(C3/C(=N/CCCc4ccccc4)NC(=O)N3c3ccc4[nH]cnc4c3)c(=O)c2c1 (centres unmarked) | UniProt:Q16769 | 400 |
| COc1cc(C/N=C2\NC(=O)N(CCCn3ccnc3)C2c2ccccc2Cl)cc(OC)c1OC (centres unmarked) | UniProt:Q16769 | 6700 |
| OC1CCCCC1N=C1NC(=S)N(c2ccc3[nH]cnc3c2)C1c1ccc2nsnc2c1 (centres unmarked) | UniProt:Q16769 | 9400 |
| O=C1CCCN1CCC/N=C1/NC(=O)N(c2ccc3[nH]cnc3c2)C1c1ccc2c(c1)OCO2 (centres unmarked) | UniProt:Q16769 | 4 |

Reading of IC50 for Cc1nc[nH]c1C1/C(=N/C2CCc3ccccc32)NC(=O)N1c1ccc2nc[nH]c2c1 (centres unmarked) with UniProt:Q16769: 400

Reading of IC50 for O=C1N/C(=N/Cc2ccccc2)C(c2ccc(Br)cc2)N1c1ccc2[nH]cnc2c1 (centres unmarked) with UniProt:Q16769: 4
